The measurements presented in this section are drawn from paper PMC7826789.

Tested on: MYLK;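 also: KINOMEscan scanMAX binding as percent activity remaining versus control; lower means stronger binding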
Details: Compound Concentration (nM):1000
Experimental endpoint: Percent Control (%)
Enter your answer as a number in %; do not include the unit.

>  <Compound>
COc1cc2ncn(-c3cc(O[C@H](C)c4ccccc4Cl)c(C(N)=O)s3)c2cc1OC [GSK237701A]

>  <Percent Control / %>
94

$$$$
>  <Compound>
Cl.O=C(Nc1ccc(Oc2ccc3[nH]c(NC(=O)c4ccccc4)nc3c2)cc1)Nc1cc(C(F)(F)F)ccc1F [GW709042A]

>  <Percent Control / %>
99

$$$$

Memo: NS(=O)(=O)c1ccc(Nc2ncc(-c3ccccc3)o2)cc1 [GW572399X] , reported Percent Control: 100

// field: Percent Control; key: Cl.O=S1CCN(Cc2ccc(-c3ccc4ncnc(Nc5ccc(OCc6ccccc6)c(F)c5)c4c3)o2)CC1 [GW576924A] ; value = 100
